Target: hSTING HAQ allele (Homo sapiens, UniProt Q86WV6, G230A/H232R/R293Q)
Construct: DNA encoding amino acids 140-379 (amino acid numbering corresponding to Swiss Prot Q86WV6); 6xHIS-SUMO (with TEV site) (N, cleaved yes); made in house; host or cells: Rosetta2 (DE3) E. coli
Sequence (Q86WV6 140-379 G230A/H232R/R293Q): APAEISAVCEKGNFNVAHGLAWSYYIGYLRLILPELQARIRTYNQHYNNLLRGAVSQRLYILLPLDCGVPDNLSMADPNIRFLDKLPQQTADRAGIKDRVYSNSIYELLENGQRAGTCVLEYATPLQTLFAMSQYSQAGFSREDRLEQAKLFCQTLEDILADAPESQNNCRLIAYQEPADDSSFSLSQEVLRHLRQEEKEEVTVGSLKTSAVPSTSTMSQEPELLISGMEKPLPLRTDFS
Experiment: Differential scanning fluorometry (DSF) Tm shift with purified STING AA140-379
Type: binding
Conditions: DSF, ligand 1 mM, 1 mg/ml STING AA140-379; read-out: hSTING Tm Shift HAQ
Procedure: DNA encoding amino acids 140-379 (amino acid numbering corresponding to Swiss Prot Q86WV6) was amplified from plasmids containing the full length sequence of human STING alleles via polymerase chain reaction with the following primers: forward […] […] Plasmids encoding 6×HIS-SUMO-TEV-STING amino acids 140-379 were transformed into Rosetta2 (DE3) E. coli cells (EMD Millipore) for protein expression. Cells were grown in lysogeny broth at 37° C. until a […] absorbance of 0.6 was reached. […]
MEASURED_METRIC: ΔTm at 1000 µM (°C)

Consider the reported ΔTm at 1000 µM for these compounds:
CC(C)C(=O)Nc1nc2c(ncn2[C@@H]2O[C@@H]3CO[P@@](=O)(S)O[C@H]4[C@@H](F)[C@H](n5cnc6c(=O)[nH]c(NC(=O)C(C)C)nc65)O[C@@H]4CO[P@@](=O)(S)O[C@H]3[C@H]2F)c(=O)[nH]1; 11.5
Nc1ccn([C@@H]2O[C@@H]3CO[P@@](=O)(S)O[C@H]4[C@@H](F)[C@H](n5cnc6c(N)ncnc65)O[C@@H]4CO[P@@](=O)(S)O[C@H]3[C@H]2F)c(=O)n1; 10.3
C#CCOc1nc(N)nc2c1ncn2[C@@H]1O[C@@H]2COP(=O)(O)O[C@H]3[C@@H](O)[C@H](n4cnc5c(=O)[nH]c(N)nc54)O[C@@H]3COP(=O)(O)O[C@H]2[C@H]1O; 7.2
CC(C)C(=O)Nc1nc2c(ncn2[C@@H]2O[C@@H]3CO[P@@](=O)(S)O[C@H]4[C@@H](F)[C@H](n5cnc6c(=O)[nH]c(NC(=O)C(C)C)nc65)O[C@@H]4CO[P@](=O)(S)O[C@H]3[C@H]2F)c(=O)[nH]1 [Compound 32a]; 9.9
Nc1ncnc2c1ncn2[C@H]1O[C@H]2CO[P@@](=O)(S)O[C@@H]3[C@H](O)[C@@H](n4cnc5c(N)ncnc54)O[C@H]3CO[P@](=O)(S)O[C@@H]2[C@@H]1O [Compound 48a]; 6.6
CC(C)C(=O)Nc1nc2c(ncn2[C@@H]2O[C@@H]3CO[P@@](=O)(S)O[C@@H]4[C@H](O)[C@@H](CO[P@@](=O)(S)O[C@H]3[C@H]2O)O[C@H]4n2cnc3c(NC(=O)c4ccccc4)ncnc32)c(=O)[nH]1; 7.6

P. C#CCOc1nc(N)nc2c1ncn2[C@@H]1O[C@@H]2COP(=O)(O)O[C@H]3[C@@H](O)[C@H](n4cnc5c(OCC#C)nc(N)nc54)O[C@@H]3COP(=O)(O)O[C@H]2[C@H]1O
Q. Nc1nc2c(ncn2[C@@H]2O[C@@H]3CO[P@](=O)(S)O[C@@H]4[C@H](O)[C@@H](CO[P@](=O)(S)O[C@H]3[C@H]2O)O[C@H]4n2cnc3c(N)ncnc32)c(=O)[nH]1
R. Nc1ncnc2c1ncn2[C@H]1O[C@H]2CO[P@](=O)(S)O[C@@H]3[C@H](O)[C@@H](n4cnc5c(N)ncnc54)O[C@H]3CO[P@](=O)(S)O[C@@H]2[C@@H]1O
Data request: Order the records so the highest ΔTm at 1000 µM appears first and the lowest last. Please express your ranking as an ordered list of the labels.
Data returned: Q, P, R
